Test system: L1210 leukemia ip in BDF1 mice, survival T/C
TEST_PROTOCOL: NCI In Vivo Anticancer Drug Screen. Data for tumor model L1210 Leukemia (intraperitoneal) in B6D2F1 (BDF1) mice
SETUP_CONDITIONS: endpoint: mean survival time; dose: 200.0 mg/kg/injection; schedule: Q04DX003 (ip); vehicle: saline; higher = longer survival
Toxic doses and inconclusive results are not listed.
Below, each of the compounds is paired with its reported T/C value.

Some solved entries appear below for comparison.
compound="O=C(NCc1ccccc1)C1C2CC3OC(=O)C1C3C2 (stereo not drawn)" subject_of_test="L1210 leukemia ip in BDF1 mice, survival T/C" metric_name=T/C result="104 % of control"
compound="O=C1CC(N2C(=O)C3C4C=CC(CC4)C3C2=O)C(=O)N1 (stereo not drawn)" subject_of_test="L1210 leukemia ip in BDF1 mice, survival T/C" metric_name=T/C result="97 % of control"

Q. I'm curious: which T/C was measured for CC(C)n1cc2c(N)ncnc2n1 tested on L1210 leukemia ip in BDF1 mice, survival T/C?
A. 108 % of control

###

Property: T/C; scope: individual compounds
Test system: L1210 leukemia ip in BDF1 mice, survival T/C
TEST_PROTOCOL: NCI In Vivo Anticancer Drug Screen. Data for tumor model L1210 Leukemia (intraperitoneal) in B6D2F1 (BDF1) mice
SETUP_CONDITIONS: endpoint: mean survival time; dose: 100.0 mg/kg/injection; schedule: Q04DX003 (ip); vehicle: saline; higher = longer survival
Inconclusive results and toxic doses are left out.

Known results for compounds:
compound=COc1ccc(C=NCCN=Cc2ccc(OC)c(OC)c2)cc1OC result="92 % of control"
compound="CCCCOC(=O)CC1CCCN1C (stereo unspecified)" result="110 % of control"
compound=Cc1cc(CN)c(C)cc1CN result="103 % of control"
compound="O=C1OC(=C(Br)Br)C2C3C=CC(C3)C12 (stereo unspecified)" result="98 % of control"
compound=c1ccc(Cn2nnc(-c3ccccc3)n2)cc1 result="97 % of control"

Now look at this one.
Q. Form field: reported T/C of Cc1cccc(CNCC(=O)O)c1
A. 92 % of control

###

Quick list: T/C per entry.
Tested on: L1210 leukemia ip in BDF1 mice, survival T/C
TEST_PROTOCOL: NCI In Vivo Anticancer Drug Screen. Data for tumor model L1210 Leukemia (intraperitoneal) in B6D2F1 (BDF1) mice
SETUP_CONDITIONS: endpoint: mean survival time; dose: 200.0 mg/kg/injection; schedule: Q01DX001 (ip); vehicle: saline; higher = longer survival
Protocol: The antitumor activity of compounds was measured in mice bearing transplantable tumors. Survival or tumor size were measured and the results are expressed as the measurement made in the treated group (T) divided by the measurement made in the vehicle treated control group (C). The tumor model used in this assay is L1210 Leukemia (intraperitoneal) in B6D2F1 (BDF1) mice
Toxic doses and inconclusive results are not listed.

compound="C1CC2CN(CCCN3CCOCC3)C(C1)O2 (stereo not given)" metric_name=T/C result="101 % of control"
compound=CC(C)(C)/C([O-])=N/[N+](C)(C)C metric_name=T/C result="97 % of control"
compound=N/C(=N\[N+](=O)[O-])N(CCCCl)N=O metric_name=T/C result="106 % of control"
compound=Cc1ccc(S(=O)(=O)/C=C(/I)C(=O)c2ccccc2)cc1 metric_name=T/C result="93 % of control"

Q. So what does the record say about T/C for CC(N)C(=O)NC1C(CO)OC(n2cnc3c(N)ncnc32)C1O (stereo not given) ?
A. 101 % of control

###

System: L1210 leukemia ip in BDF1 mice, survival T/C
TEST_PROTOCOL: NCI In Vivo Anticancer Drug Screen. Data for tumor model L1210 Leukemia (intraperitoneal) in B6D2F1 (BDF1) mice
SETUP_CONDITIONS: endpoint: mean survival time; dose: 100.0 mg/kg/injection; schedule: Q04DX003 (ip); vehicle: Klucel (hydroxypropylcellulose) (HPC); higher = longer survival
Protocol: The antitumor activity of compounds was measured in mice bearing transplantable tumors. Survival or tumor size were measured and the results are expressed as the measurement made in the treated group (T) divided by the measurement made in the vehicle treated control group (C). The tumor model used in this assay is L1210 Leukemia (intraperitoneal) in B6D2F1 (BDF1) mice
Toxic doses and inconclusive results are not listed.
Quick reference for T/C among some molecules

molecule=O=C(O)c1ccc2c(c1Nc1ccc(-c3ccc(Nc4c(C(=O)O)ccc5c4C(=O)c4ccccc4C5=O)cc3)cc1)C(=O)c1ccccc1C2=O result="93 % of control"
molecule="OC1CNCCc2ccccc21 (stereo unspecified)" result="92 % of control"
molecule=O=CNNc1ccccc1 result="106 % of control"
molecule=Cc1cccc(C)c1NC(N)=S result="98 % of control"
molecule=CSc1ccc(/C=N/NC(N)=S)cc1 result="106 % of control"
molecule=O=C(Nc1ccccn1)Nc1cc(C(F)(F)F)ccc1Cl result="108 % of control"
molecule=Cc1cccc(C)c1NC(=O)Nc1ccc2c(c1)OCO2 result="93 % of control"
molecule=CCC(=O)c1ccc(O)cc1 result="102 % of control"
molecule="CC(NC(=O)NCCCl)c1ccco1 (stereo unspecified)" result="101 % of control"
molecule=COc1cc(OC)c([N+](=O)[O-])cc1Cl result="96 % of control"

The record that follows has no T/C shown yet.
Q. Entry CC1OC2COC(C)OC2C(C(O)COC(c2ccccc2)(c2ccccc2)c2ccccc2)O1 (stereo unspecified) : reported T/C = ?
A. 98 % of control

###

Test system: L1210 leukemia ip in BDF1 mice, survival T/C
TEST_PROTOCOL: NCI In Vivo Anticancer Drug Screen. Data for tumor model L1210 Leukemia (intraperitoneal) in B6D2F1 (BDF1) mice
SETUP_CONDITIONS: endpoint: mean survival time; dose: 200.0 mg/kg/injection; schedule: Q01DX009 (ip); vehicle: Klucel (hydroxypropylcellulose) (HPC); higher = longer survival
Inconclusive results and toxic doses are left out.
METRIC_NAME: T/C

# count of solved cases: 5
compound=ClC(Cl)=C1C(Cl)=C(Cl)C(Cl)=C1Cl result="94 % of control"
compound=CCOP(=O)(NC12CC3CC(CC(C3)C1)C2)OCC result="94 % of control"
compound=COC(=O)NNC(=O)OC result="100 % of control"
compound=CCOC(=O)Nc1cccc(C)c1C result="107 % of control"
compound=COC(=O)/C=C/N1C(=O)c2ccccc2C1=O result="98 % of control"

Q. Look at this compound and give its reported T/C. COc1ccc2c(ccc3c2ncc2c(=O)[nH]n(C)c23)c1
A. 93 % of control

Q. Name the recorded T/C for N#Cc1c(N)nc2ccccc2[n+]1[O-] .
A. 100 % of control

Q. Return reported T/C; argument: O=S(=O)(c1ccc(Nc2nnc(-c3ccccc3)s2)cc1)N1CCCCC1
A. 89 % of control

###

System: L1210 leukemia ip in BDF1 mice, survival T/C
TEST_PROTOCOL: NCI In Vivo Anticancer Drug Screen. Data for tumor model L1210 Leukemia (intraperitoneal) in B6D2F1 (BDF1) mice
SETUP_CONDITIONS: endpoint: mean survival time; dose: 200.0 mg/kg/injection; schedule: Q04DX003 (ip); vehicle: saline with Tween-80; higher = longer survival
Inconclusive results and toxic doses are left out.
METRIC_NAME: T/C

Record excerpt, results attached:
compound="NS(=O)Oc1ccc(Nc2ncnc3nc[nH]c23)cc1 (stereo unspecified)" subject_of_test="L1210 leukemia ip in BDF1 mice, survival T/C" metric_name=T/C result="102 % of control"
compound=Cc1ccc(Cl)cc1NC(=O)NCc1cccnc1 subject_of_test="L1210 leukemia ip in BDF1 mice, survival T/C" metric_name=T/C result="100 % of control"
compound=COC(=O)C(=C(c1ccccc1)c1ccccc1)c1ccccc1 subject_of_test="L1210 leukemia ip in BDF1 mice, survival T/C" metric_name=T/C result="90 % of control"
compound="COC(=O)NC1CC(OC(=O)c2ccc(C)cc2)C(COC(=O)c2ccc(C)cc2)O1 (stereo unspecified)" subject_of_test="L1210 leukemia ip in BDF1 mice, survival T/C" metric_name=T/C result="100 % of control"
compound=O=C(c1ccc(F)cc1)c1ccc([N+](=O)[O-])cc1 subject_of_test="L1210 leukemia ip in BDF1 mice, survival T/C" metric_name=T/C result="97 % of control"
compound=CCCCCCC(C(C(C)=O)C(C)=O)C(C(C)=O)C(C)=O subject_of_test="L1210 leukemia ip in BDF1 mice, survival T/C" metric_name=T/C result="93 % of control"
compound=Cc1c(Cl)cccc1NC(=S)NC(=O)/C=C/c1ccccc1 subject_of_test="L1210 leukemia ip in BDF1 mice, survival T/C" metric_name=T/C result="101 % of control"
compound=O=C1c2ccccc2C(C(O)(C(F)(F)F)C(F)(F)F)c2ccccc21 subject_of_test="L1210 leukemia ip in BDF1 mice, survival T/C" metric_name=T/C result="97 % of control"

Q. State the recorded T/C for this entry: CCCCCC(C)O[Si](C)Oc1ccccc1 (stereo unspecified)
A. 100 % of control

Q. # input compound: c1ccc(OCC2CO2)cc1 (stereo unspecified) ; wanted: its T/C
A. 97 % of control

Q. Which T/C is reported for this compound? Oc1ccc(C2N(c3ccccc3)CCN2c2ccccc2)cc1
A. 97 % of control
